Format: cell-based, human
Settings: human, Cell viability (%)
Description: For the evaluation of peptides’ cytotoxicity, the human immortalized keratinocytes (HaCaT cells), purchased from AddexBio (San Diego, CA, USA), and BEAS-2B were used. […] The purple formazan crystals were dissolved using acidified 2-propanol and a microplate reader (Infinite M200; Tecan, Salzburg, Austria) was used to measure the absorbance of each well at 570 nm. […]
Bridge positions count the residues as written; N and C are the ends. Square brackets hold non-standard residues; d marks the D form. Peptide text beside a SMILES is read from it. Pro(cis-4-guanidino) = NC(N)=N[C@@H]1CN[C@H](C(=O)O)C1; Phe(4-guanidino) = N=C(N)Nc1ccc(C[C@H](N)C(=O)O)cc1
I'd appreciate it if you could supply viability at 2 h, 50 µM values for the items below.
Numbers only, in %.

compound	viability at 2 h, 50 µM [%]
CC[C@H](C)[C@H](NC(=O)[C@H](CCCNC(=N)N)NC(=O)[C@H]1CCC(=O)NCCCC[C@H](NC(=O)[C@H](Cc2ccccc2)NC(=O)[C@H](Cc2c[nH]c3ccccc23)NC(=O)[C@@H]2C[C@H](NC(=N)N)CN2C(=O)[C@@H](NC(=O)[C@@H](N)Cc2ccccc2)C(C)C)C(=O)N[C@@H](CCCCN)C(=O)N[C@@H](Cc2ccccc2)C(=O)N[C@H](CC(C)C)C(=O)N1)C(=O)N[C@@H](CC(C)C)C(N)=O [Peptide 7, FV(4-guanidino)PWF[KKFle]RIL] (H-FV[Pro(cis-4-guanidino)]WFKKF[dL][dE]RIL-NH2; lactam 6-10)	16
CC[C@H](C)[C@H](NC(=O)[C@H](CCCNC(=N)N)NC(=O)[C@H]1CCC(=O)NCCCC[C@H](NC(=O)[C@H](Cc2ccc(NC(=N)N)cc2)NC(=O)[C@H](Cc2c[nH]c3ccccc23)NC(=O)[C@@H]2CCCN2C(=O)[C@@H](NC(=O)[C@@H](N)Cc2ccccc2)C(C)C)C(=O)N[C@@H](CCCCN)C(=O)N[C@@H](Cc2ccccc2)C(=O)N[C@H](CC(C)C)C(=O)N1)C(=O)N[C@@H](CC(C)C)C(N)=O [Peptide 8, FVPW(p-guanidino)F[KKFle]RIL] (H-FVPW[Phe(4-guanidino)]KKF[dL][dE]RIL-NH2; lactam 6-10)	92

Proceed to the following item.
Item CC[C@H](C)[C@H](NC(=O)[C@H](CCCNC(=N)N)NC(=O)[C@H]1CCCCNC(=N)NCCCC[C@H](NC(=O)[C@H](Cc2ccccc2)NC(=O)[C@H](Cc2c[nH]c3ccccc23)NC(=O)[C@@H]2CCCN2C(=O)[C@@H](NC(=O)[C@@H](N)Cc2ccccc2)C(C)C)C(=O)N[C@@H](CCCCN)C(=O)N[C@@H](Cc2ccccc2)C(=O)N[C@H](CC(C)C)C(=O)N1)C(=O)N[C@@H](CC(C)C)C(N)=O [Peptide 12, FVPWF{KKFlk}RIL] has what recorded viability at 2 h, 50 µM?
11

* * *

Tested on: P. aeruginosa ATCC 27853
Experiment: microbe, parasite or virus in culture
Type: cell-based
Details: ATCC 27853
Bridge positions count the residues as written; N and C are the ends. Square brackets hold non-standard residues; d marks the D form. Peptide text beside a SMILES is read from it. Phe(4-guanidino) = N=C(N)Nc1ccc(C[C@H](N)C(=O)O)cc1
property measured: MIC (µM)
Give bare numbers, in µM.

Record CC[C@H](C)[C@H](NC(=O)[C@H](CCCNC(=N)N)NC(=O)[C@H]1CCC(=O)NCCCC[C@H](NC(=O)[C@H](Cc2ccccc2)NC(=O)[C@H](Cc2c[nH]c3ccccc23)NC(=O)[C@@H]2CCCN2C(=O)[C@@H](NC(=O)[C@@H](N)Cc2ccc(NC(=N)N)cc2)C(C)C)C(=O)N[C@@H](CCCCN)C(=O)N[C@@H](Cc2ccccc2)C(=O)N[C@H](CC(C)C)C(=O)N1)C(=O)N[C@@H](CC(C)C)C(N)=O [Peptide 6, (p-guanidino)FVPWF[KKFle]RIL] (H-[Phe(4-guanidino)]VPWFKKF[dL][dE]RIL-NH2; lactam 6-10) : what is its MIC with P. aeruginosa ATCC 27853?
25
